FYI, the data here is from PubChem BioAssay (NCI).

In this section, each of the molecules is paired with its reported TGI.
- System: MALME-3M melanoma
- PROTOCOL DESCRIPTION: NCI tumour cell line growth inhibition, 48 h

Lab note: measured TGI of "CCCCCCCC/C=C\CCCCCCC/C=C1/C[C@](/C=C/C(=O)OC)(CO)OC1=O" was 8.74 µM

Lab note: measured TGI of "CSc1nc(=Nc2ccccc2)sn1-c1ccccc1" was 99.1 µM

Lab note: measured TGI of "Cc1nc2ccccc2c(=O)n1NC(=S)Nc1ccccc1" was > 100 µM

Lab note: measured TGI of CCOC(=O)/C=C(/OCC)[C@@H]1C(C(=O)c2ccc(Cl)cc2)[C@H]1/C(=C\C(=O)OCC)OCC (stereo partly specified) was > 100 µM

Lab note: measured TGI of "Nc1nc(-c2ccccc2)cc(-c2ccccc2O)n1" was > 100 µM

Lab note: measured TGI of CC(C)(C)C(=O)CC1(O)C=C(O)C(O)(CC(=O)C(C)(C)C)O1 (stereo unspecified) was > 100 µM

###

- Tested on: MCF7 breast
- PROTOCOL DESCRIPTION: NCI tumour cell line growth inhibition, 48 h
In this section, each of the compounds is paired with its reported TGI.

Please review the following examples before continuing.
The compound "c1ccc(CSc2nnc3c4c5c(sc4nc(-c4cccnc4)n23)CCCCCC5)cc1" , tested on MCF7 breast, showed TGI of 11.2 µM

The compound COC(=O)C(CCC1CC(OC)N(C(=O)OCc2ccccc2)C1)N=Cc1ccccc1 (stereo not given) , tested on MCF7 breast, showed TGI of > 100 µM

The compound "O=c1oc2ccc(Cl)cc2cc1C1=CSC2=NCCN12" , tested on MCF7 breast, showed TGI of 40.1 µM

The compound "COCOc1cc(OC)ccc1C/C=N/O" , tested on MCF7 breast, showed TGI of > 100 µM

The compound "CC(C)(C)c1ccc2c(c1)C(=O)c1ccccc1C2=O" , tested on MCF7 breast, showed TGI of 66.3 µM

New cases:
The compound "CCCCn1c(C)c(C(=O)CC)c(C(=O)NCCN2CCN(c3ccccc3Cl)CC2)c1C" , tested on MCF7 breast, showed TGI of 36.2 µM

The compound "Clc1ccc(CSC2=NCCN2)cc1Cl" , tested on MCF7 breast, showed TGI of 25.2 µM

The compound Oc1ccc2c(c1)OCC1c3ccccc3OC21 (stereo not given) , tested on MCF7 breast, showed TGI of > 100 µM

###

In this section, each of the molecules is paired with its reported TGI.
- Tested on: OVCAR-8 ovarian
- PROTOCOL DESCRIPTION: NCI tumour cell line growth inhibition, 48 h

Please review the following examples before continuing.
Lab note: measured TGI of CC(=O)NC1=C(C)C(=O)c2c(nc3n2CCC3OC(=O)CCl)C1=O (stereo not drawn) was 16.6 µM

Lab note: measured TGI of "O=[N+]([O-])c1nccn1COCCI" was > 100 µM

Let's switch to this molecule now.
Lab note: measured TGI of "C/C(CC(=O)Nc1ccc(C)c(C)c1)=N\NC(N)=S" was > 100 µM

###

- System: RXF 393 renal
- PROTOCOL DESCRIPTION: NCI tumour cell line growth inhibition, 48 h
In this section, each of the compounds is paired with its reported log10 of TGI.
All values: log10 TGI [µM].

Lab note: measured log10 of TGI of "Cc1nc2ccccc2c(/C=C/c2ccc(Cl)cc2)c1C(=O)/C=C/c1ccc(F)cc1" was 0.50

Lab note: measured log10 of TGI of COc1cccc2c1C(=O)c1c(O)c3c(c(O)c1C2=O)CC(O)(C(=O)CO)CC3OC1CC(N)C(I)C(C)O1 (stereo not drawn) was 1.40

Lab note: measured log10 of TGI of "CSc1nc(=Nc2ccccc2)sn1-c1ccccc1" was 1.50

Lab note: measured log10 of TGI of O=C(NC1CCC(Br)CC1)C1CCCC(S(=O)(=O)NC2CCCCC2)C1 (stereo not drawn) was 1.68

Lab note: measured log10 of TGI of C[C@]12CC[C@H](OC3OC(O)C(O)C(O)C3O)C=C1CCC1C2CC[C@]2(C)[C@@H](c3ccc(=O)oc3)CC[C@]12O (stereo partly drawn) was -2.41

Lab note: measured log10 of TGI of CC(C)=NNc1ncnc2c1ncn2C1OC(CO)C(O)C1O (stereo not drawn) was 0.55

Lab note: measured log10 of TGI of "COc1ccc(CN2C(=O)C(Cl)=C(Nc3cccc(O)c3)C2=O)cc1" was 1.05

Lab note: measured log10 of TGI of "NN/C(=N\S(=O)(=O)c1ccc(-c2ccccn2)s1)Nc1ccc(Cl)cc1" was 1.97
